System: SNB-19 CNS
protocol.description: NCI-60 one-dose screen, 48 h
reported.conditions: 10 µM unless noted
Compounds without any hit were thinned out: in the full panel of roughly 83,000, 20% have a hit. Calls of active or inactive are those of the source. Rule for the calls: active = growth percent below 10; inactive = the rest.
Allowed answers: active, inactive

Cc1cc(C(=O)CCCC(=O)c2cc(C)c(O)c(C)c2)cc(C)c1O :: inactive
c1ccc2cc(Cn3cc(CSc4nc5ccccc5s4)nn3)ccc2c1 :: inactive
CC(=O)c1sc(-c2ccc(F)cc2)cc1O :: inactive
Nc1ncnc2c1N=C(c1ccc(F)cc1)CC(c1cccc(Nc3ccnc4cc(Cl)ccc34)c1)N2 (stereo not drawn) :: inactive
Cc1ccc(NC(=O)c2sc3nc(C)c(C(O)c4ccccc4)cc3c2N)cc1 (stereo not drawn) :: inactive
NS(=O)(=O)c1ccc(C(=O)NN2C(=O)c3ccccc3C2=O)cc1 :: inactive
COc1ccc(-c2cc(C(=O)N3N=C(c4ccc(N)cc4)CC3c3ccc(Cl)cc3)c3cc(OC)ccc3n2)cc1 (stereo not drawn) :: inactive
COc1ccc(/C=C2\CN(C(=O)C(Cl)Cl)C/C(=C\c3ccc(OC)c(OC)c3)C2=O)cc1OC :: active
C[C@@H]1NC(=O)[C@H](Cc2ccccc2)N(Cc2cccnc2)C1=O :: inactive
Nc1cc(Br)cc2c1[nH]c(=O)c1ccccc12 :: inactive

*Q* Can you look up the reported call for CC1=C2[C@@H](CC1)[C@]1(C)O[C@@](C3CCNCC3)(C[C@H]1OC(=O)CO)[C@H]2OC(=O)/C=C/c1ccccc1 for me?
*A* inactive

*Q* Can you look up the reported call for COc1cc(-c2ccc(-c3ccc(C(=N)N)cc3)s2)cc(OC)c1OC for me?
*A* inactive

*Q* Can you look up the reported call for Nc1c(C(=O)Nc2cccc3ncccc23)sc2nc3c(cc12)CN(Cc1ccccc1)CC3 for me?
*A* inactive

*Q* Can you look up the reported call for CN(C)c1ccc([C@@H](C(=O)Nc2cccc([N+](=O)[O-])c2)N(C(=O)c2cc3ccccc3[nH]2)c2cccc([N+](=O)[O-])c2)cc1 for me?
*A* inactive

*Q* Can you look up the reported call for CCCN(CCSSCCNc1nc(N(C)O)nc(N(C)O)n1)c1nc(N(C)O)nc(N(C)O)n1 for me?
*A* inactive

*Q* Can you look up the reported call for CC/C(=C(/c1ccc(O)cc1)c1ccc(OCCN2CCCCC2)cc1)c1ccc(OC)cc1 for me?
*A* inactive

*Q* Can you look up the reported call for CC(=O)c1ccc(-n2cc(CN3CCN(c4cc5c(cc4F)c(=O)c(C(=O)O)cn5C4CC4)CC3)nn2)cc1 for me?
*A* inactive

* * *

Tested on: OVCAR-5 ovarian
protocol.description: NCI-60 one-dose screen, 48 h (100 = growth as untreated, 0 = no growth, -100 = all killed)
reported.conditions: 10 µM unless noted
About 83,000 compounds went through this panel and 20% of them were active in at least one assay; those are over-represented in the sample as a whole. The source made the active and inactive calls. The calls were made as follows: active = growth percent below 10; inactive = the rest.
growth: recorded values

OC1CSSC1Cn1cnc2c(Nc3ccc(OCc4cccc(F)c4)c(Cl)c3)ncnc21 (stereo not drawn) :: 41% (inactive)
CC[C@@H](C(=O)[C@@H](C)[C@@H](O)[C@H](C)[C@@H]1O[C@@H]([C@@H](CC)C(=O)ONC(=O)c2ccccc2O)CC[C@@H]1C)C1O[C@]2(C=CC(=O)[C@]3(CC[C@@](C)([C@H]4CC[C@](O)(CC)[C@H](C)O4)O3)O2)[C@H](C)C[C@@H]1C (stereo partly drawn) :: 47% (inactive)
Cc1cc(Cl)nc(N2CCN(CCNc3ccnc4cc(Cl)ccc34)CC2)n1 :: 66.6% (inactive)
CCN(CC)CCCNc1cc(OC)c(OC)c2cccnc12 :: 112% (inactive)
O=c1oc2ccccc2cc1-c1nn(-c2ccccc2)cc1-c1nn[nH]n1 :: 93.2% (inactive)
Cn1cc(-c2nonc2-c2c[nH]c3ccccc23)c2cc(Br)ccc21 :: 49% (inactive)

*Q* # return recorded growth for entry C=C1C(=O)O[C@@H]2C3C(=C(C)CC[C@@H]12)CC1O[C@]13C (stereo partly drawn)
*A* 108% [6.75 µM] (inactive)

*Q* # return recorded growth for entry COc1cc(/C=C/c2cn[nH]c2-c2ccc(C)cc2)cc(OC)c1OC
*A* 85% (inactive)

* * *

Tested on: UO-31 renal
protocol.description: NCI-60 one-dose screen, 48 h
reported.conditions: 10 µM unless noted
This is part of a sample that, as a whole, favours compounds with a hit. Of some 83,000 tested, about 20% had one in any assay. Active and inactive are the calls of the source. How the source made its calls: active means growth percent below 10; inactive means the rest.
Allowed answers: True = active, False = inactive

Consider the worked cases shown below.
C#Cc1cccc(Nc2ncnc3cc(NC(=O)CCl)ccc23)c1 :: True
N#Cc1c(-c2ccc(Cl)cc2)nc(NN=Cc2ccc[nH]2)nc1N1CCOCC1 :: False
O=C1/C(=C/c2ccc(Cl)cc2)CN(C(=O)C(Cl)Cl)C/C1=C\c1ccc(Cl)cc1 :: True
CN(C)CCC(CCN(C)C)(C(=O)O)c1ccccc1 :: False
COC1C(O)CC(OC2CC(OC3CC(O[C@@H]4C(=O)c5c(cc6cc(OC7CC(OC8CC(O)C(O)C(C)O8)C(O)C(C)O7)c(C)c(O)c6c5O)CC4[C@H](OC)C(=O)O)OC(C)C3O)OC(C)C2O)OC1C (stereo partly drawn) :: True
CCOC(=O)C/C(=N\Nc1cc(=O)[nH]c2ccc(OC)cc12)C(=O)OCC :: False
C=CC(=O)Nc1cccc(Oc2nccc(Nc3nnc(-c4ccc(Br)cc4)s3)n2)c1 :: False
C/C(=C(\c1ccc(OCCN2CCCCCC2)cc1)c1ccc(OC(=O)c2ccccc2)cc1)c1ccc(Cl)cc1 :: False
O=C(c1ccc(Br)cc1)C(Br)C(c1ccc(Cl)cc1)C(c1ccccc1)[N+](=O)[O-] (stereo not drawn) :: False
O=C(NC1CCC(Br)CC1)C1CCCC(S(=O)(=O)NC2CCCCC2)C1 (stereo not drawn) :: True

*Q* Can you look up the reported call for CCOC(=O)/C(=C(/C)NCC(C)C)c1cc(O)c(O)c2c(C)cc(=O)[nH]c12 for me?
*A* False

*Q* Can you look up the reported call for N#Cc1ccccc1-c1ccc(CN2C(=O)S/C(=C\c3ccc(Br)cc3)C2=O)cc1 for me?
*A* False

*Q* Can you look up the reported call for c1ccc(-c2nc3ccccc3[nH]2)c(OCCCCCOc2ccccc2-c2nc3ccccc3[nH]2)c1 for me?
*A* False

*Q* Can you look up the reported call for CC(=O)Nc1sc2c(c1-c1nc3ccccc3s1)CNC2 for me?
*A* True

*Q* Can you look up the reported call for CS(=O)(=O)c1ccc(-c2nc3ccccc3n2CC(=O)N/N=C/c2ccccc2)cc1 for me?
*A* False

*Q* Can you look up the reported call for Cn1c(C#N)ccc1-c1ccc(F)c(NC(=O)c2ccc(F)cc2)c1 for me?
*A* False

*Q* Can you look up the reported call for COc1cccc(-c2cn3nc(-c4cn(C)c5ccccc45)sc3n2)c1 for me?
*A* False

*Q* Can you look up the reported call for Cc1ccc(S(=O)(=O)OCC#CCOS(=O)(=O)c2ccc(C)cc2)cc1 for me?
*A* True

* * *

Test system: ACHN renal
protocol.description: NCI-60 one-dose screen, 48 h (100 = growth as untreated, 0 = no growth, -100 = all killed)
reported.conditions: 10 µM unless noted
This is part of a sample that, as a whole, favours compounds with a hit. Of some 83,000 tested, about 20% had one in any assay.
Mark F for growth values under 40%, and T for everything at or above.

Consider the worked cases shown below.
CSc1ccc2c3c(n(CCCn4ccnc4)c(=O)c2c1)-c1ccccc1C3=O :: F
O=S(=O)(NCCNc1nccc(-c2c(-c3ccc(F)c(O)c3)nc3sccn23)n1)c1ccc(Cl)cc1 :: F
Cc1nc2sc(C(=O)Nc3cccc(Cl)c3C)c(N)c2cc1C(=O)/C=C/c1ccccc1 :: F
O=C(NCCN1CCOCC1)OCc1ccc2c(Cl)cc(Cl)c(O)c2n1 :: F
Cc1oc(-c2ccc(Cl)cc2)nc1C1=NN(C(=O)c2ccncc2)C(c2ccccc2)C1 (stereo unspecified) :: T

*Q* Does the molecule C#CCOc1cccc(Nc2ncnc3cc(NC(=O)CCl)ccc23)c1 have recorded growth that is 40% or more?
*A* F

*Q* Does the molecule O=C(Nc1nc(Cl)nc(Nc2ccc(N3CCOCC3=O)cc2)n1)c1ccc(Cl)s1 have recorded growth that is 40% or more?
*A* T

*Q* Does the molecule CCn1cc(C(=O)N/N=C/c2ccccc2)c(=O)c2cc(F)c(N3CCNC(C)C3)c(F)c21 (stereo unspecified) have recorded growth that is 40% or more?
*A* T

*Q* Does the molecule CCCCCc1ccc(S(=O)(=O)Nc2ccc3nc(N)oc3c2)cc1 have recorded growth that is 40% or more?
*A* T

*Q* Does the molecule Cc1ccc(OCCOCCOCCOc2ccc(C)n(O)c2=S)c(=S)n1O have recorded growth that is 40% or more?
*A* T

*Q* Does the molecule Cn1c(C#N)ccc1-c1ccc(F)c(NC(=O)c2ccc(F)cc2)c1 have recorded growth that is 40% or more?
*A* T

*Q* Does the molecule O=C(C[C@]1(O)C(=O)Nc2ccc(Br)cc21)c1ccco1 have recorded growth that is 40% or more?
*A* T

*Q* Does the molecule C=C1C(=O)O[C@H]2[C@H]1CC/C(COC(=O)NCc1ccc(Cn3c(=O)sn(-c4ccccc4)c3=O)cc1)=C\CC[C@@]1(C)O[C@@H]21 have recorded growth that is 40% or more?
*A* F

*Q* Does the molecule S=c1ccnc[nH]1 have recorded growth that is 40% or more?
*A* T

*Q* Does the molecule O=c1cc(CNc2cc(F)cc(F)c2)c2ccc(I)cc2[nH]1 have recorded growth that is 40% or more?
*A* F

*Q* Does the molecule CCN1C(=O)N(c2ccccc2)C2NC(=S)N(/N=C/C=C/c3ccccc3OC)C21 (stereo unspecified) have recorded growth that is 40% or more?
*A* F

*Q* Does the molecule N=C(N)c1ccc(OCCSCCOc2ccc(C(=N)N)cc2)cc1 have recorded growth that is 40% or more?
*A* T

*Q* Does the molecule O=C(Nc1cccnc1Nc1ccccc1)c1cn(Cc2cccc(Oc3ccccc3)c2)nn1 have recorded growth that is 40% or more?
*A* T

*Q* Does the molecule C=C1C(=O)O[C@H]2[C@H]1CC/C(COC(=O)NCc1ccc(Cn3c(=O)sn(-c4ccc(I)cc4)c3=O)cc1)=C\CC[C@@]1(C)O[C@@H]21 have recorded growth that is 40% or more?
*A* T

*Q* Does the molecule Cc1cc2oc(/C=C/c3ccccc3)cc(=O)c2c(C)c1Cl have recorded growth that is 40% or more?
*A* T

*Q* Does the molecule Cc1ccc2c(c1)nc(C)n2-c1ncnc2c1CC(C)c1cc(O)ccc1N2C (stereo unspecified) have recorded growth that is 40% or more?
*A* T

*Q* Does the molecule CC(C)(C)OC(=O)CN1CCc2c(sc3ncnc(N4CCN(c5ccc(F)cc5)CC4)c23)C1 have recorded growth that is 40% or more?
*A* T

*Q* Does the molecule CC(C)(C)c1ccc(C(=O)N/N=C/c2ccc(O)cc2O)cc1 have recorded growth that is 40% or more?
*A* F

*Q* Does the molecule COc1cc(-c2nccc3[nH]c(-c4cccc5[nH]ccc45)nc23)cc(OC)c1OC have recorded growth that is 40% or more?
*A* F

*Q* Does the molecule CN(C)CCCNC(=O)c1cncnc1Nc1ccc2c(ccn2Cc2cccc(F)c2)c1 have recorded growth that is 40% or more?
*A* T

*Q* Does the molecule COc1ccc(C/C(C)=C(\c2ccc(O)cc2)c2ccc(OCCN3CCCCC3)cc2)cc1 have recorded growth that is 40% or more?
*A* T

*Q* Does the molecule C=C(C)[C@@H]1CC[C@]2(C(=O)N3CCNCC3)CC[C@]3(C)[C@H](CC[C@@H]4[C@@](C)(CCC(=O)N5CCNCC5)[C@H](C(=C)C)CC[C@]43C)[C@@H]12 have recorded growth that is 40% or more?
*A* T

*Q* Does the molecule Nc1nc(C(=O)N/N=C/c2ccc(F)cc2)nn1-c1ccc(S(N)(=O)=O)cc1 have recorded growth that is 40% or more?
*A* T

Data provenance is PubChem BioAssay (NCI).
